Listing: protein stability index of selected variants
B1: SMOC2 (parent)
chain: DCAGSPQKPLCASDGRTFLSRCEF

- Variants of: B1
- assay_overview: protein stability index of a GFP-peptide fusion (GPS, HEK-293T) (PSI 1-6); higher = more stable;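 also: lentivirally expressed fusions sorted by FACS into six bins by GFP to DsRed ratio, PSI derived from sequencing read proportions per bin multiplied by bin number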
- condition_set: c terminus: a fixed tail appended

[
  {
    "var": "C2D",
    "protein stability index": 3.44
  },
  {
    "var": "E23G",
    "protein stability index": 1.5
  },
  {
    "var": "C2E",
    "protein stability index": 3.84
  },
  {
    "var": "A12C",
    "protein stability index": 1.59
  },
  {
    "var": "G4L",
    "protein stability index": 2.56
  },
  {
    "var": "P6L",
    "protein stability index": 2.18
  },
  {
    "var": "A12K",
    "protein stability index": 2.59
  },
  {
    "var": "R16F",
    "protein stability index": 1.35
  },
  {
    "var": "C2K",
    "protein stability index": 3.03
  },
  {
    "var": "R21Q",
    "protein stability index": 3.1
  },
  {
    "var": "C2T",
    "protein stability index": 3.5
  },
  {
    "var": "G4T",
    "protein stability index": 3.2
  },
  {
    "var": "S20Y",
    "protein stability index": 1.9
  },
  {
    "var": "S20V",
    "protein stability index": 3.04
  },
  {
    "var": "T17V",
    "protein stability index": 2.22
  },
  {
    "var": "T17H",
    "protein stability index": 3.45
  },
  {
    "var": "A3L",
    "protein stability index": 2.73
  },
  {
    "var": "Q7A",
    "protein stability index": 2.51
  },
  {
    "var": "G4A",
    "protein stability index": 2.77
  },
  {
    "var": "Q7Y",
    "protein stability index": 2.36
  },
  {
    "var": "S5C",
    "protein stability index": 2.24
  },
  {
    "var": "F24Y",
    "protein stability index": 2.67
  },
  {
    "var": "G4S",
    "protein stability index": 2.24
  },
  {
    "var": "G15K",
    "protein stability index": 2.3
  },
  {
    "var": "S5I",
    "protein stability index": 2.14
  },
  {
    "var": "F18Y",
    "protein stability index": 3.09
  },
  {
    "var": "K8Q",
    "protein stability index": 2.77
  },
  {
    "var": "L10I",
    "protein stability index": 2.63
  },
  {
    "var": "S5E",
    "protein stability index": 2.56
  },
  {
    "var": "L19K",
    "protein stability index": 3.53
  },
  {
    "var": "S20I",
    "protein stability index": 3.04
  },
  {
    "var": "D1S",
    "protein stability index": 1.93
  },
  {
    "var": "F18D",
    "protein stability index": 4.51
  },
  {
    "var": "A12N",
    "protein stability index": 2.94
  },
  {
    "var": "F24R",
    "protein stability index": 2.57
  },
  {
    "var": "K8H",
    "protein stability index": 2.48
  },
  {
    "var": "C22G",
    "protein stability index": 3.96
  },
  {
    "var": "F18W",
    "protein stability index": 1.79
  },
  {
    "var": "R21I",
    "protein stability index": 1.67
  },
  {
    "var": "S13Y",
    "protein stability index": 2.25
  },
  {
    "var": "P9H",
    "protein stability index": 2.36
  },
  {
    "var": "S5T",
    "protein stability index": 2.24
  },
  {
    "var": "P9D",
    "protein stability index": 2.97
  },
  {
    "var": "K8D",
    "protein stability index": 3.33
  },
  {
    "var": "P9S",
    "protein stability index": 3.08
  },
  {
    "var": "R16P",
    "protein stability index": 3.43
  },
  {
    "var": "P6E",
    "protein stability index": 3.15
  },
  {
    "var": "L19T",
    "protein stability index": 2.59
  },
  {
    "var": "C22K",
    "protein stability index": 4.42
  },
  {
    "var": "G4R",
    "protein stability index": 2.08
  },
  {
    "var": "D1K",
    "protein stability index": 2.59
  },
  {
    "var": "G4C",
    "protein stability index": 3.17
  },
  {
    "var": "D14S",
    "protein stability index": 3.19
  },
  {
    "var": "D14Y",
    "protein stability index": 2.26
  },
  {
    "var": "S13E",
    "protein stability index": 3.25
  },
  {
    "var": "R21Y",
    "protein stability index": 2.27
  },
  {
    "var": "R21M",
    "protein stability index": 1.68
  },
  {
    "var": "P9I",
    "protein stability index": 2.04
  },
  {
    "var": "P9Q",
    "protein stability index": 3.13
  },
  {
    "var": "P6V",
    "protein stability index": 1.8
  },
  {
    "var": "L19Y",
    "protein stability index": 2.49
  },
  {
    "var": "S5P",
    "protein stability index": 2.72
  },
  {
    "var": "F18G",
    "protein stability index": 4.82
  },
  {
    "var": "A3N",
    "protein stability index": 2.66
  },
  {
    "var": "R16H",
    "protein stability index": 3.97
  },
  {
    "var": "C11M",
    "protein stability index": 3.23
  },
  {
    "var": "L10Q",
    "protein stability index": 4.04
  },
  {
    "var": "P9C",
    "protein stability index": 2.65
  },
  {
    "var": "L10W",
    "protein stability index": 2.16
  },
  {
    "var": "L10N",
    "protein stability index": 2.08
  },
  {
    "var": "E23F",
    "protein stability index": 2.38
  },
  {
    "var": "G4N",
    "protein stability index": 2.62
  },
  {
    "var": "A12Q",
    "protein stability index": 3.1
  },
  {
    "var": "E23W",
    "protein stability index": 1.82
  },
  {
    "var": "F24E",
    "protein stability index": 4.41
  },
  {
    "var": "F18R",
    "protein stability index": 3.84
  },
  {
    "var": "F24I",
    "protein stability index": 3.16
  },
  {
    "var": "P6W",
    "protein stability index": 2.08
  },
  {
    "var": "S20Q",
    "protein stability index": 2.97
  },
  {
    "var": "Q7M",
    "protein stability index": 2.73
  },
  {
    "var": "L19V",
    "protein stability index": 1.88
  },
  {
    "var": "G15R",
    "protein stability index": 2.83
  },
  {
    "var": "S13I",
    "protein stability index": 3.88
  },
  {
    "var": "S5G",
    "protein stability index": 3.07
  },
  {
    "var": "S5Y",
    "protein stability index": 2.68
  }
]
